- Tested on: Fibrinogen (Alexa647-labelled)
- assay_method_text: fibrinogen binders on compound microarrays, profiling panel, artefact control for SMM control-protein annotation, biochemical, small-molecule microarray, 635/667 nm fluorescence (AID 1131);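 further: z-score merges 667 nm fluorescence with per-spot signal-to-noise over triplicate slides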
- assay_context: fibrinogen-A647 binding fluorescence, higher = more signal
quantity_kind: composite z-score
// response body must contain only the number

q: State the recorded composite z-score for this entry: "CO[C@H]1COC(=O)CC=C[C@H](C)[C@@H](OC)COC(=O)[C@@H](C)COC(=O)CC=C[C@@H]1C"
a: -1.26

q: Given "C#CCCCON=C1C[C@@H](O)[C@@H](O)[C@@H]2[C@@H]3C(=O)N(c4ccc(F)cc4F)C(=O)[C@@H]3CC[C@@H]12" , state its recorded composite z-score.
a: 0.265

q: Can you look up the measured composite z-score of Cc1cc2c(nc1C)CCCCN2CC(C)ON=C[C@@H](C)[C@H](OCc1ccccc1)C(C)C (stereo partly drawn) for me?
a: -2.1
